Provide the reported cell viability of each item.
Tested on: Mono-Mac-6
Experiment: cell viability (% survival relative to DMSO control, bortezomib = 0%); higher = less cytotoxic
Conditions: 1 nM; 72 h
Please reply with the bare figure in % and do not write the unit itself.

Request the reported cell viability associated with CC(C)c1ccc2c(c1)c(SC(C)(C)C)c(CC(C)(C)C(=O)O)n2Cc1ccc(Cl)cc1 [MK-886]
111

Request the reported cell viability associated with N=C(N)c1ccc(N=NNc2ccc(C(=N)N)cc2)cc1 [Diminazene]
97

Request the reported cell viability associated with CCCCCCCNC=O [N-Heptyl-Formamide]
110

Request the reported cell viability associated with Cl.OC[C@H]1NC[C@H](O)[C@@H](O)[C@H]1O [Migalastat]
102

Request the reported cell viability associated with CC(C)(CCCCCCCCCCC(C)(C)CC(=O)O)CC(=O)O [MEDICA 16]
99.8
